- Experimental Target: Mitogen-activated protein kinase 7 (Homo sapiens)
- Assay Text: Gal4-ERK5 driven luciferase induction – cell-based, HTS, primary screen (AID 1508626);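 further: luciferase driven by Gal4-ERK5 fusion binding five Gal4 sites before minimal TATA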
- Assay Context: HeLa Gal4-ERK5 transactivation, 18 h, at 5 µM, hits give high values
Calls of active or inactive are those of the source.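 How the source made its calls: active means luciferase signal above three times the same-plate solvent-only control wells; inactive means the rest.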
Parameter luciferase signal: see the listing below.

Examples with answers:
CCCCOc1ccc(OCCCN2CCOCC2)cc1; 36 AU (inactive)
C[n+]1ccccc1/C=N/O; 84 AU (inactive)
CC(C)N=C(N)/N=C(\N)Nc1ccc(Cl)cc1; 84 AU (inactive)

Please supply the value of reported luciferase signal for the item Cc1cc(CC(=O)O)n(C)c1C(=O)c1ccc(Cl)cc1
96 AU (inactive)

Answer with the recorded luciferase signal for the molecule listed here: CCCc1cc(C(N)=S)ccn1
96 AU (inactive)

Find the measured luciferase signal of Cc1onc(-c2ccccc2)c1C(=O)N[C@@H]1C(=O)N2[C@@H]1SC(C)(C)[C@@H]2C(=O)O and report it.
64 AU (inactive)

----------
- Assay Text: inhibition of endothelial tube formation, primary screen, imaging, VEGF stimulated, CD31 staining, tube area, NPC library (AID 1117340)
- Assay Context: VEGF-stimulated ADSC/ECFC co-culture, at 10 µM, hits give high values
Measure Name: tube area decrease (%)
State the answer as a number, implicitly in %.

For orientation, consider the following solved cases.
COC1=C(OC)C(=O)C(CCCCCCCCCCO)=C(C)C1=O; 66.9
NS(=O)(=O)c1cc2c(cc1Cl)NC(C(Cl)Cl)NS2(=O)=O (stereo not drawn); -20.1
Cc1ccnc(NS(=O)(=O)c2ccc(N)cc2)n1; -12.6
CNS(=O)(=O)Cc1ccc2[nH]cc(CCN(C)C)c2c1; 15.1
CCCCOc1ccc(OCCCN2CCOCC2)cc1; 15.4
CC(=O)O[C@H]1C[C@@H]2CC[C@@H]3[C@H](CC[C@@]4(C)[C@H]3C[C@H]([N+]3(C)CCCCC3)[C@@H]4OC(C)=O)[C@@]2(C)C[C@@H]1N1CCCCC1; 4.6
NS(=O)(=O)c1cc(C(=O)O)c(NCc2ccco2)cc1Cl; 13
COc1cc2c(cc1OC)-c1cc(=Nc3c(C)cc(C)cc3C)n(C)c(=O)n1CC2; -11.8

Identify measured tube area decrease corresponding to CN1CCC(=C2c3ccccc3C=Cc3ccccc32)CC1
43.3

Please report tube area decrease for the following compound: CC(C)(C)CC(C)(C)c1ccc(O)c(Cc2ccc(Cl)cc2Cl)c1
108

Determine from records and report tube area decrease for CC1CCc2cc(F)cc3c(=O)c(C(=O)O)cn1c23 (stereo not drawn)
3.3

Check the records and state tube area decrease for O=C(O)c1cc(=O)c2ccccc2o1
-2.1

Specify measured tube area decrease for CN(C)CCOC(=O)COc1ccc(Cl)cc1 .
-34.4

# return recorded tube area decrease for input C=Cc1c(C)c2cc3[nH]c(cc4nc(cc5nc(cc1[nH]2)C(C)=C5CCC(=O)O)C(CCC(=O)O)=C4C)c(C)c3C=C
-597

Let me know recorded tube area decrease for CN1C(C(=O)Nc2ccccn2)=C(O)c2sccc2S1(=O)=O , thanks.
2.6

Return tube area decrease (reported value) for this compound: Cc1nc2ccc(CN(C)c3ccc(C(=O)N[C@@H](CCC(=O)O)C(=O)O)s3)cc2c(=O)[nH]1
62.5

Report tube area decrease for CN1CCC(OC(c2ccccc2)c2ccccc2)CC1
13.8

Supply reported tube area decrease belonging to this compound: CC(=O)Oc1cccc(O)c1
20.9

Return value of tube area decrease for input Cc1ncc([N+](=O)[O-])n1CCO , no commentary.
-14.9

Report tube area decrease for COc1cc(C)c(Cc2cnc(N)nc2N)cc1OC
11.1

For the compound CNCCCCOc1ccccc1Cc1ccccc1 , give its measured tube area decrease value.
41

Give the reported value of tube area decrease for this record: O=C(O)/C=C(\CC(=O)O)C(=O)O
5.8

Return reported tube area decrease. Input compound: Oc1ccc(Cl)c2cccnc12
11.9

Supply tube area decrease value. Item: COc1cc(NS(=O)(=O)c2ccc(N)cc2)ncn1
1.4

Quickly give me recorded tube area decrease for CCOC(=O)NNc1nncc2ccccc12
-6.6

Input Cc1ccc(S(=O)(=O)NC(=O)NN2CC3CCCC3C2)cc1 (stereo not drawn) , output reported tube area decrease.
-26.1

Indicate its recorded tube area decrease; the compound in question is NCCCC[C@H](N[C@@H](CCc1ccccc1)C(=O)O)C(=O)N1CCC[C@H]1C(=O)O
-7.9
